src = the supplement of paper PMC10307832

Test system: HCC-15
measurement.protocol: relative viability (nuclei count vs DMSO), 5 days (fraction); higher = more cells survive
assay.setup: first compound 0.1 µM
With a cut-off of 0.7, any relative viability strictly below it is called condition met; any relative viability meeting it or above is called condition not met.

compound	class.label
O=c1cc(N2CCOCC2)oc2c(-c3cccc4c3sc3ccccc34)cccc12 + CC(=O)c1c(C)c2cnc(Nc3ccc(N4CCNCC4)cn3)nc2n(C2CCCC2)c1=O [Palbociclib] (partner 0.5 µM)	condition not met
O=c1cc(N2CCOCC2)oc2c(-c3cccc4c3sc3ccccc34)cccc12 + Cc1cc(Nc2cc(N3CCN(C)CC3)nc(Sc3ccc(NC(=O)C4CC4)cc3)n2)n[nH]1 [Tozasertib] (partner 0.1 µM)	condition met
CCN(CC)CCCCNc1ncc2cc(-c3cc(OC)cc(OC)c3)c(NC(=O)NC(C)(C)C)nc2n1 + NC(=O)Nc1cc(-c2cccc(F)c2)sc1C(=O)N[C@H]1CCCNC1 [AZD7762] (partner 0.2 µM)	condition not met
CCN(CC)CCCCNc1ncc2cc(-c3cc(OC)cc(OC)c3)c(NC(=O)NC(C)(C)C)nc2n1 + CC1(C)CCC(c2ccc(Cl)cc2)=C(CN2CCN(c3ccc(C(=O)NS(=O)(=O)c4ccc(N[C@H](CCN5CCOCC5)CSc5ccccc5)c(S(=O)(=O)C(F)(F)F)c4)cc3)CC2)C1 [Navitoclax] (partner 0.5 µM)	condition not met
CCN(CC)CCCCNc1ncc2cc(-c3cc(OC)cc(OC)c3)c(NC(=O)NC(C)(C)C)nc2n1 + COc1cc2c(Oc3ccc(NC(=O)C4(C(=O)Nc5ccc(F)cc5)CC4)cc3F)ccnc2cc1OCCCN1CCOCC1 [Foretinib] (partner 0.25 µM)	condition not met

* * *

Test system: NCI-H460
measurement.protocol: relative viability (nuclei count vs DMSO), 5 days (fraction); higher = more cells survive
assay.setup: first compound 0.01 µM

compound	relative viability
CCN(CC)CCCCNc1ncc2cc(-c3cc(OC)cc(OC)c3)c(NC(=O)NC(C)(C)C)nc2n1 + C[C@@H](Oc1cc(-c2cnn(C3CCNCC3)c2)cnc1N)c1c(Cl)ccc(F)c1Cl [Crizotinib] (partner 1 µM)	1.15
CCN(CC)CCCCNc1ncc2cc(-c3cc(OC)cc(OC)c3)c(NC(=O)NC(C)(C)C)nc2n1 + C[C@]1(O)C[C@@H](c2nc(-c3ccc4ccc(-c5ccccc5)nc4c3)c3c(N)nccn32)C1 [Linsitinib] (partner 1 µM)	1.05
CCN(CC)CCCCNc1ncc2cc(-c3cc(OC)cc(OC)c3)c(NC(=O)NC(C)(C)C)nc2n1 + Nc1nc2[nH]cc(CCc3ccc(C(=O)N[C@@H](CCC(=O)O)C(=O)O)cc3)c2c(=O)[nH]1 [Pemetrexed] (partner 0.2 µM)	0.0558
O=c1cc(N2CCOCC2)oc2c(-c3cccc4c3sc3ccccc34)cccc12 + Nc1ncn([C@H]2C[C@H](O)[C@@H](CO)O2)c(=O)n1 [Decitabine] (partner 2 µM)	0.509
O=c1cc(N2CCOCC2)oc2c(-c3cccc4c3sc3ccccc34)cccc12 + Cc1nc(NC(=O)N2CCC[C@H]2C(N)=O)sc1-c1ccnc(C(C)(C)C(F)(F)F)c1 [Alpelisib] (partner 2 µM)	0.509

* * *

Let's look at some compounds and their measured relative viability.
Tested on: LC-2-ad
measurement.protocol: relative viability (nuclei count vs DMSO), 5 days (fraction); higher = more cells survive
assay.setup: first compound 0.253 µM
measurement.type: relative viability

compound	measurement.type	test.result
COc1nc(C)cnc1NS(=O)(=O)c1cccnc1-c1ccc(-c2nnco2)cc1 [Zibotentan] + CS(=O)(=O)N1CCN(Cc2cc3nc(-c4cccc5[nH]ncc45)nc(N4CCOCC4)c3s2)CC1 [Pictilisib] (partner 1 µM)	relative viability	0.406
COc1nc(C)cnc1NS(=O)(=O)c1cccnc1-c1ccc(-c2nnco2)cc1 [Zibotentan] + C[C@]1(O)C[C@@H](c2nc(-c3ccc4ccc(-c5ccccc5)nc4c3)c3c(N)nccn32)C1 [Linsitinib] (partner 1 µM)	relative viability	0.828
COc1nc(C)cnc1NS(=O)(=O)c1cccnc1-c1ccc(-c2nnco2)cc1 [Zibotentan] + Cc1nc(NC(=O)N2CCC[C@H]2C(N)=O)sc1-c1ccnc(C(C)(C)C(F)(F)F)c1 [Alpelisib] (partner 2 µM)	relative viability	0.869
O=c1cc(-c2cccc3c2Sc2ccccc2S3)oc(N2CCOCC2)c1 + COc1cc2c(Oc3ccc(NC(=O)C4(C(=O)Nc5ccc(F)cc5)CC4)cc3F)ccnc2cc1OCCCN1CCOCC1 [Foretinib] (partner 0.25 µM)	relative viability	0.97
O=c1cc(-c2cccc3c2Sc2ccccc2S3)oc(N2CCOCC2)c1 + C[C@@H](Oc1cc(-c2cnn(C3CCNCC3)c2)cnc1N)c1c(Cl)ccc(F)c1Cl [Crizotinib] (partner 1 µM)	relative viability	0.499

* * *

Test system: NCI-H3122
measurement.protocol: relative viability (nuclei count vs DMSO), 5 days (fraction); higher = more cells survive
assay.setup: first compound 0.01 µM
The following compounds are listed with their measured relative viability values.

compound	subject.of.test	relative viability
O=c1cc(N2CCOCC2)oc2c(-c3cccc4c3sc3ccccc34)cccc12 + C[C@@H](Oc1cc(-c2cnn(C3CCNCC3)c2)cnc1N)c1c(Cl)ccc(F)c1Cl [Crizotinib] (partner 1 µM)	NCI-H3122	0.269
CCN(CC)CCCCNc1ncc2cc(-c3cc(OC)cc(OC)c3)c(NC(=O)NC(C)(C)C)nc2n1 + O=C(c1cc(Cc2n[nH]c(=O)c3ccccc23)ccc1F)N1CCN(C(=O)C2CC2)CC1 [Olaparib] (partner 8 µM)	NCI-H3122	0.642
CCN(CC)CCCCNc1ncc2cc(-c3cc(OC)cc(OC)c3)c(NC(=O)NC(C)(C)C)nc2n1 + Nc1nc2[nH]cc(CCc3ccc(C(=O)N[C@@H](CCC(=O)O)C(=O)O)cc3)c2c(=O)[nH]1 [Pemetrexed] (partner 0.2 µM)	NCI-H3122	0.208
CCN(CC)CCCCNc1ncc2cc(-c3cc(OC)cc(OC)c3)c(NC(=O)NC(C)(C)C)nc2n1 + O=C(CCCCCCC(=O)Nc1ccccc1)NO [Vorinostat] (partner 1 µM)	NCI-H3122	0.983

* * *

System: 201T
measurement.protocol: relative viability (nuclei count vs DMSO), 5 days (fraction); higher = more cells survive
assay.setup: first compound 2 µM
measurement.type: relative viability

compound	measurement.type	test.result
COCC1(CO)C(=O)C2CCN1CC2 (stereo not given) [PRIMA-1MET] + COc1cc2c(Oc3ccc(NC(=O)C4(C(=O)Nc5ccc(F)cc5)CC4)cc3F)ccnc2cc1OCCCN1CCOCC1 [Foretinib] (partner 0.25 µM)	relative viability	0.97
COCC1(CO)C(=O)C2CCN1CC2 (stereo not given) [PRIMA-1MET] + O=C(c1cc(Cc2n[nH]c(=O)c3ccccc23)ccc1F)N1CCN(C(=O)C2CC2)CC1 [Olaparib] (partner 8 µM)	relative viability	0.808
COCC1(CO)C(=O)C2CCN1CC2 (stereo not given) [PRIMA-1MET] + C[C@@H](Oc1cc(-c2cnn(C3CCNCC3)c2)cnc1N)c1c(Cl)ccc(F)c1Cl [Crizotinib] (partner 1 µM)	relative viability	0.901
COCC1(CO)C(=O)C2CCN1CC2 (stereo not given) [PRIMA-1MET] + Cc1nc(Nc2ncc(C(=O)Nc3c(C)cccc3Cl)s2)cc(N2CCN(CCO)CC2)n1 [Dasatinib] (partner 0.075 µM)	relative viability	0.59
COCC1(CO)C(=O)C2CCN1CC2 (stereo not given) [PRIMA-1MET] + CC(C)C[C@H](NC(=O)[C@H](Cc1ccccc1)NC(=O)c1cnccn1)B(O)O [Bortezomib] (partner 0.002 µM)	relative viability	1.07

* * *

Test system: CAL-12T
measurement.protocol: relative viability (nuclei count vs DMSO), 5 days (fraction); higher = more cells survive
assay.setup: first compound 8 µM
measurement.type: relative viability

molecule	test.result
O=c1cc(-c2cccc3c2Sc2ccccc2S3)oc(N2CCOCC2)c1 + Cc1cc(Nc2cc(N3CCN(C)CC3)nc(Sc3ccc(NC(=O)C4CC4)cc3)n2)n[nH]1 [Tozasertib] (partner 0.1 µM)	0.224
O=c1cc(-c2cccc3c2Sc2ccccc2S3)oc(N2CCOCC2)c1 + O=C(CCCCCCC(=O)Nc1ccccc1)NO [Vorinostat] (partner 1 µM)	0.699
O=c1cc(-c2cccc3c2Sc2ccccc2S3)oc(N2CCOCC2)c1 + CS(=O)(=O)N1CCN(Cc2cc3nc(-c4cccc5[nH]ncc45)nc(N4CCOCC4)c3s2)CC1 [Pictilisib] (partner 1 µM)	0.397
O=c1cc(-c2cccc3c2Sc2ccccc2S3)oc(N2CCOCC2)c1 + Nc1nc2[nH]cc(CCc3ccc(C(=O)N[C@@H](CCC(=O)O)C(=O)O)cc3)c2c(=O)[nH]1 [Pemetrexed] (partner 0.2 µM)	1.03
O=c1cc(-c2cccc3c2Sc2ccccc2S3)oc(N2CCOCC2)c1 + C[C@@H](Oc1cc(-c2cnn(C3CCNCC3)c2)cnc1N)c1c(Cl)ccc(F)c1Cl [Crizotinib] (partner 1 µM)	0.731
O=c1cc(-c2cccc3c2Sc2ccccc2S3)oc(N2CCOCC2)c1 + CC(=O)Nc1cccc(-n2c(=O)n(C3CC3)c(=O)c3c(Nc4ccc(I)cc4F)n(C)c(=O)c(C)c32)c1 [Trametinib] (partner 0.02 µM)	0.246
